# ASSAYED SYSTEM: UniProtKB Q9GZQ6
# Sequence (Q9GZQ6 whole entry): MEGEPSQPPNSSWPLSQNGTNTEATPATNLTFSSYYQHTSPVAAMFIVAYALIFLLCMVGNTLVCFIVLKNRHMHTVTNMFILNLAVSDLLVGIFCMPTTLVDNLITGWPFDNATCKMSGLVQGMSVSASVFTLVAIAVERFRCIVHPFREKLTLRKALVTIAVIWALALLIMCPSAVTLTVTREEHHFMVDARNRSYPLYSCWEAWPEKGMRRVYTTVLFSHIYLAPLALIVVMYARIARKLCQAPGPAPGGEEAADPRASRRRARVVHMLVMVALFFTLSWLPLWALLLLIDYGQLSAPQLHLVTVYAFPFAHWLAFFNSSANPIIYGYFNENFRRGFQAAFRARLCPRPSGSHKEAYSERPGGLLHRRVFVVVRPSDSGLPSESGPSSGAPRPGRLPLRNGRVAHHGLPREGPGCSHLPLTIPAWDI
# ASSAY OVERVIEW: Displacement of [3H]FFRF-NH2 from human flag-tagged NPFF1 receptor expressed in CHO cells at 500 nM by scintillation counting
# Assay type: cell-based
The label depends only on inhibition: condition met if it is at least 40%, condition not met if it is smaller.

Take a look at these entries with their results.
N=C(N)NCCC[C@H](NC(=O)c1ccc2ccccc2c1)C(=O)N[C@@H](Cc1ccccc1)C(N)=O	condition not met
N=C(N)NCCC[C@@H](NC(=O)C(c1ccccc1)c1ccccc1)C(=O)N[C@@H](Cc1ccccc1)C(N)=O	condition met
N=C(N)NCCC[C@H](NC(=O)c1ccncc1)C(=O)N[C@@H](Cc1ccccc1)C(N)=O	condition not met
N=C(N)NCCC[C@H](NC(=O)CC(c1ccccc1)c1ccccc1)C(=O)N[C@@H](Cc1ccccc1)C(N)=O	condition not met
N=C(N)NCCC[C@H](NC(=O)c1ccc(O)c(O)c1)C(=O)N[C@@H](Cc1ccccc1)C(N)=O	condition not met
N=C(N)NCCC[C@H](NC(=O)Cc1ccc(Cl)cc1)C(=O)N[C@@H](Cc1ccccc1)C(N)=O	condition met

Q) Given N=C(N)NCCC[C@@H](NC(=O)c1ccc(-c2ccccc2)cc1)C(=O)N[C@@H](Cc1ccccc1)C(N)=O , state whether its inhibition is at least 40%.
A) condition met

====

# ASSAYED SYSTEM: Neuropeptide FF receptor 2 (Homo sapiens)
# Sequence (Q9Y5X5 whole entry): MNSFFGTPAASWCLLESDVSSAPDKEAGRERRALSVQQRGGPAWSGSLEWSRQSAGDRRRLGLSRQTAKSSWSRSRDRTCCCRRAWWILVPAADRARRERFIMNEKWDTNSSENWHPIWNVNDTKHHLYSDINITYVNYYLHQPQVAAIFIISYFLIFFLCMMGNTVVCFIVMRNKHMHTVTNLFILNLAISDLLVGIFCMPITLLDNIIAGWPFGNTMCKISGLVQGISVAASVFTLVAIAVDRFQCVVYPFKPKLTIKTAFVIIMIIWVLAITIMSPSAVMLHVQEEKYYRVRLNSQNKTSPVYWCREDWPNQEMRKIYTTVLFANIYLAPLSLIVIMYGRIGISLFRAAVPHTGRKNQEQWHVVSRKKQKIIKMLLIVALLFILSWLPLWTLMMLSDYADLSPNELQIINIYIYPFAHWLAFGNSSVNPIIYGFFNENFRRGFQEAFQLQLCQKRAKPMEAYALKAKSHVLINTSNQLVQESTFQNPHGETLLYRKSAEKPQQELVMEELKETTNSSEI
# ASSAY OVERVIEW: Displacement of [3H]FFRF-NH2 from human flag-tagged NPFF2 receptor expressed in CHO cells at 500 nM by scintillation counting
# Format: cell-based
Think of 20% as a floor: if inhibition stands on it or above, it is Satisfied; beneath it, Not satisfied.

Here's what some known entries look like.
N=C(N)NCCC[C@H](NC(=O)c1ccc(C(=O)c2ccccc2)cc1)C(=O)N[C@@H](Cc1ccccc1)C(N)=O	Not satisfied
N=C(N)NCCC[C@@H](NC(=O)C(c1ccccc1)c1ccccc1)C(=O)N[C@H](Cc1ccccc1)C(N)=O	Not satisfied
N=C(N)NCCC[C@@H](NC(=O)c1ccc(-c2ccccc2)cc1)C(=O)N[C@@H](Cc1ccccc1)C(N)=O	Satisfied
COc1ccc(C(=O)N[C@@H](CCCNC(=N)N)C(=O)N[C@@H](Cc2ccccc2)C(N)=O)cc1OC	Not satisfied
N=C(N)NCCC[C@H](NC(=O)Cc1ccccc1Cl)C(=O)N[C@@H](Cc1ccccc1)C(N)=O	Not satisfied
COc1ccc(/C=C/C(=O)N[C@@H](CCCNC(=N)N)C(=O)N[C@@H](Cc2ccccc2)C(N)=O)cc1	Satisfied
N=C(N)NCCC[C@H](NC(=O)/C=C/c1ccccc1)C(=O)N[C@@H](Cc1ccccc1)C(N)=O	Satisfied
N=C(N)NCCC[C@H](NC(=O)c1ccc(-c2ccccc2)cc1)C(=O)N[C@@H](Cc1ccccc1)C(N)=O	Not satisfied
N=C(N)NCCC[C@@H](NC(=O)c1ccccc1)C(=O)N[C@@H](Cc1ccccc1)C(N)=O	Satisfied
N=C(N)NCCC[C@@H](NC(=O)c1ccccc1)C(=O)N[C@H](Cc1ccccc1)C(N)=O	Not satisfied

Q) Exam item: decide whether the reported inhibition for N=C(N)NCCC[C@H](NC(=O)c1cccnc1)C(=O)N[C@@H](Cc1ccccc1)C(N)=O is at least 20%.
A) Not satisfied

Q) Has COc1ccc(C(=O)N[C@@H](CCCNC(=N)N)C(=O)N[C@@H](Cc2ccccc2)C(N)=O)cc1 a recorded inhibition greater than or equal to 20%?
A) Not satisfied

Q) Determine whether measured inhibition meets or exceeds 20% for N=C(N)NCCC[C@H](NC(=O)c1cnc2ccccc2c1)C(=O)N[C@@H](Cc1ccccc1)C(N)=O
A) Satisfied

Q) Please indicate if the recorded inhibition for N=C(N)NCCC[C@H](NC(=O)c1ccc(Cl)cc1Cl)C(=O)N[C@@H](Cc1ccccc1)C(N)=O meets or exceeds 20%.
A) Not satisfied

Q) Please tell me: is the molecule N=C(N)NCCC[C@@H](NC(=O)C12CC3CC(CC(C3)C1)C2)C(=O)N[C@@H](Cc1ccccc1)C(N)=O at or over 20% in terms of inhibition?
A) Satisfied
